system: winter barley; assay: Test C postemergence herbicide test; assay type: in vivo, Hordeum vulgare; settings: postemergence; 62 g ai/ha; scale 0 to 100 (0 no effect, 100 complete control)
Quick reference for Plant response rating, Barley, Winter among some compounds
Keep it simple and answer with nothing but the number.

// known answers, use as guide
{"columns": ["molecule", "obs-value"],
 "data": [
  ["C=CCN(CC=C)C(=O)c1ccc(F)c(NC(=O)c2cc(C(C)(C)C)nn2CC)c1", 40],
  ["CCn1nc(C2(C)CC2)cc1C(=O)Nc1cccc(C(=O)N2CC=CC2)c1", 35],
  ["CCn1nc(C(C)(C)C)cc1C(=O)Nc1cccc(OC(F)(F)F)c1", 35],
  ["C#CCNC(=O)c1cccc(NC(=O)c2nn(C(C)(C)C)nc2CC)c1", 20]
]}

Per the record, C#CCOc1cccc(NC(=O)c2cc(C(C)(C)C)nn2CC)c1 has Plant response rating, Barley, Winter of 30
